- Experimental target: anti-CD28 scFv (VH - linker 1 - VL) (biotinylated (site not stated))
- Sequence (scFv, as listed by the source): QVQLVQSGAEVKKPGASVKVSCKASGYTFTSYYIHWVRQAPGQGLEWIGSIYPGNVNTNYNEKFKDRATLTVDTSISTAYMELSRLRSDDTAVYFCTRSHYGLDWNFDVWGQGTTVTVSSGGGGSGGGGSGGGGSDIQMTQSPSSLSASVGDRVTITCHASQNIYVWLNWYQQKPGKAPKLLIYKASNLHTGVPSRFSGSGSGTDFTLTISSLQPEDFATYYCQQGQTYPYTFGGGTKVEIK
- Assay info: same phage ELISA, wells pre-incubated with soluble CD28 (competitor)
Where no end group is shown, it is not given here.
# CD28 scFv signal in presence of CD28 per record follows
In your answer, state the number alone without any accompanying words.

Problem: Quick one: CD28 scFv signal in presence of CD28 of MDWCPIHLWHVCFN (peptide, not shown: large carriers, cysteine pairing not given here; also: displayed as fusion to phage pIII, Clonal phage supernatant) [Phage-20] ?
Solution: 0.167

Others:
Problem: Quick one: CD28 scFv signal in presence of CD28 of MDWCPLHMWHECFS (peptide, not shown: large carriers, Clonal phage supernatant) [Phage-23] ?
Solution: 0.151

Problem: Quick one: CD28 scFv signal in presence of CD28 of MDWCPRYLWHVCFA (peptide, not shown: large carriers, cysteine pairing not given here; also: fused to phage pIII, linker not given here, Clonal phage supernatant) [Phage-36] ?
Solution: 0.226

Problem: Quick one: CD28 scFv signal in presence of CD28 of MDWCPRDLWHECFA (peptide, not shown: large carriers, cysteine pairing not given here; also: phage-displayed pIII fusion, pIII and linker not given here, Clonal phage supernatant) [Phage-26] ?
Solution: 0.277

Problem: Quick one: CD28 scFv signal in presence of CD28 of MDWCPRDMWSECFA (peptide, not shown: large carriers, Clonal phage supernatant) [Phage-31] ?
Solution: 0.293

Problem: Quick one: CD28 scFv signal in presence of CD28 of MNWCPKDIWYLCFN (peptide, not shown: large carriers, Clonal phage supernatant) [Phage-22] ?
Solution: 0.168

Each recorded value in this set is attributed to patent US20260242478A1.
